Test: DUSP6 inhibitors restoring Erk phosphorylation by chemical complementation, primary imaging in DUSP6-transfected HeLa (AID 609)
Conditions: HeLa MKP-3 transfected, phospho-Erk imaging KS statistic; measured here: nuclear c-Myc green intensity z-score; at 10 µM; cells stimulated with TPA for 15 min
ATTRIBUTE_MEASURED: z-score
Number, no unit, nothing else.

Some compounds with known z-score results, for comparison:
{"COMPOUND": "Cc1ccccc1-n1c(=O)/c(=C\\c2ccco2)s/c1=C(/C#N)C(=O)Nc1ccccc1", "RECORDED_VALUE": -0.624}
{"COMPOUND": "COC(=O)[C@H]1CCCN1C(=O)Nc1cccc(Oc2c(F)c(F)c(F)c(F)c2F)c1", "RECORDED_VALUE": 0.709}

The value of z-score measured for the compound `Cc1cc2ccccc2cc(C)c1=O` turned out to be 0.00969

Briefly, z-score measured for O=C(O)C1CC(=O)N(Cc2cccs2)C1 (stereo unspecified) : 0.857

Consider `C=CCNc1nc(N2CCCCC2)c(C#N)c2c1CN(Cc1ccccc1)CC2` . Its measured z-score is -0.299

Record `O=C(NCc1ccccn1)c1ccc(=O)oc1` , field z-score: 0.178

The measured z-score associated with `CC1(C)Cc2[nH]c(=S)c(C#N)cc2CO1` reads 0.751

Briefly, z-score measured for `COc1ccccc1-c1nnc2n1N=C(c1ccc(O)c(O)c1)CS2` : -1.29

# z-score of `CC(C)OCCCn1c(=N)c(C(N)=S)cc2c(=O)n3ccccc3nc21` = -1.47

Entry `COCCCNC(=O)c1c(N)n(/N=C/c2cccnc2)c2nc3ccccc3nc12` — recorded z-score = 0.735

Documented z-score of `CCOc1ccc(S(=O)(=O)N(C)CCO)cc1-c1nc2c(C(C)(C)C)nn(C)c2c(=O)[nH]1` : 1.27
